Source: the supplement of paper PMC7125110

B1: glmS ribozyme (parent)
chain: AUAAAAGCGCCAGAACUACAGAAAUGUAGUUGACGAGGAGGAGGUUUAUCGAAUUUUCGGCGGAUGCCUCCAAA

Variants of: B1
Assay: self-cleavage kobs at 10000 uM GlcN6P; higher = faster cleavage; RNA array
Details: with glucosamine-6-phosphate
Variants at the floor of the assay were thinned out.
Reported self-cleavage kobs at 10000 uM GlcN6P is given for each of the following variants.
experimental readout: self-cleavage kobs at 10000 uM GlcN6P (s⁻¹)

INSERT INTO results (mutant_code, experimental_readout, bound_operator, measured_value) VALUES
  ('A6C G59A G66A', 'self-cleavage kobs at 10000 uM GlcN6P', '<', '1e-05'),
  ('G32C A36C A39U U69G', 'self-cleavage kobs at 10000 uM GlcN6P', '<', '1e-05'),
  ('C11U G32C U55G A64C', 'self-cleavage kobs at 10000 uM GlcN6P', '<', '1e-05'),
  ('A6C C10G U31A G43U C70U', 'self-cleavage kobs at 10000 uM GlcN6P', '<', '1e-05'),
  ('C11A U46G', 'self-cleavage kobs at 10000 uM GlcN6P', '=', '4.72e-05'),
  ('A14U A36C A48G C61U', 'self-cleavage kobs at 10000 uM GlcN6P', '<', '1e-05'),
  ('C10G A39U A48C', 'self-cleavage kobs at 10000 uM GlcN6P', '<', '1e-05'),
  ('A14C U54G C58G C68U', 'self-cleavage kobs at 10000 uM GlcN6P', '=', '4.43e-05'),
  ('G29A G32A', 'self-cleavage kobs at 10000 uM GlcN6P', '=', 0.000945),
  ('A64U C67A', 'self-cleavage kobs at 10000 uM GlcN6P', '=', '2.41e-05'),
  ('C16G C70U', 'self-cleavage kobs at 10000 uM GlcN6P', '=', 0.00521),
  ('A6G A36U C50U', 'self-cleavage kobs at 10000 uM GlcN6P', '<', '1e-05'),
  ('C8U A64G C68U', 'self-cleavage kobs at 10000 uM GlcN6P', '<', '1e-05'),
  ('U30A G35A', 'self-cleavage kobs at 10000 uM GlcN6P', '<', '1e-05'),
  ('G38C A52G', 'self-cleavage kobs at 10000 uM GlcN6P', '<', '1e-05'),
  ('G43U U54G', 'self-cleavage kobs at 10000 uM GlcN6P', '=', '6.53e-05'),
  ('G37C A64G C70U', 'self-cleavage kobs at 10000 uM GlcN6P', '=', '4.49e-05'),
  ('U2C C11U G59U', 'self-cleavage kobs at 10000 uM GlcN6P', '=', 0.000103),
  ('C67G U69C', 'self-cleavage kobs at 10000 uM GlcN6P', '=', 0.00127),
  ('C16A G35U G60U', 'self-cleavage kobs at 10000 uM GlcN6P', '<', '1e-05'),
  ('A42G U55G', 'self-cleavage kobs at 10000 uM GlcN6P', '=', 0.0243),
  ('A39G C67G', 'self-cleavage kobs at 10000 uM GlcN6P', '=', 0.00223),
  ('A12U G44U U57A G59A', 'self-cleavage kobs at 10000 uM GlcN6P', '<', '1e-05'),
  ('G40C C50U C58A C71G', 'self-cleavage kobs at 10000 uM GlcN6P', '<', '1e-05'),
  ('A12U A14U A53G', 'self-cleavage kobs at 10000 uM GlcN6P', '=', 0.00411),
  ('G59U G63U C67A', 'self-cleavage kobs at 10000 uM GlcN6P', '<', '1e-05'),
  ('A14U C34U C68G', 'self-cleavage kobs at 10000 uM GlcN6P', '=', '7.15e-05'),
  ('A12C U57C', 'self-cleavage kobs at 10000 uM GlcN6P', '=', 0.000214),
  ('G32A C68G', 'self-cleavage kobs at 10000 uM GlcN6P', '=', '2.81e-05'),
  ('C8U U49A', 'self-cleavage kobs at 10000 uM GlcN6P', '<', '1e-05'),
  ('A52G U57G U65C', 'self-cleavage kobs at 10000 uM GlcN6P', '=', '6.98e-05'),
  ('G9C C10G A52U C71A', 'self-cleavage kobs at 10000 uM GlcN6P', '<', '1e-05'),
  ('G44U G60C', 'self-cleavage kobs at 10000 uM GlcN6P', '<', '1e-05'),
  ('G32U G35U', 'self-cleavage kobs at 10000 uM GlcN6P', '<', '1e-05'),
  ('A12C G13C G32A A39U', 'self-cleavage kobs at 10000 uM GlcN6P', '=', '5.7e-05'),
  ('C11U A12G U45G C67A', 'self-cleavage kobs at 10000 uM GlcN6P', '=', '5.25e-05'),
  ('C34U A42C', 'self-cleavage kobs at 10000 uM GlcN6P', '<', '1e-05'),
  ('A12U C50G G62A C71U', 'self-cleavage kobs at 10000 uM GlcN6P', '=', '8.18e-05'),
  ('A6G C61A', 'self-cleavage kobs at 10000 uM GlcN6P', '<', '1e-05'),
  ('G44U A52C', 'self-cleavage kobs at 10000 uM GlcN6P', '<', '1e-05'),
  ('C11G G37C G40U G51A U65C', 'self-cleavage kobs at 10000 uM GlcN6P', '<', '1e-05'),
  ('G29A A39U A42U', 'self-cleavage kobs at 10000 uM GlcN6P', '=', 0.000685),
  ('C50G U69G', 'self-cleavage kobs at 10000 uM GlcN6P', '=', 0.000141),
  ('G51U G59C G66U', 'self-cleavage kobs at 10000 uM GlcN6P', '<', '1e-05'),
  ('A12C U30A U47A G51U', 'self-cleavage kobs at 10000 uM GlcN6P', '<', '1e-05'),
  ('G7C U45A', 'self-cleavage kobs at 10000 uM GlcN6P', '<', '1e-05'),
  ('G44U C70A', 'self-cleavage kobs at 10000 uM GlcN6P', '<', '1e-05'),
  ('U30A A33U C34A A36C G37C U57G', 'self-cleavage kobs at 10000 uM GlcN6P', '<', '1e-05'),
  ('A52G C71G', 'self-cleavage kobs at 10000 uM GlcN6P', '=', 0.000127),
  ('C16A C71G', 'self-cleavage kobs at 10000 uM GlcN6P', '=', '5.48e-05'),
  ('C10A C16U G41A A42C', 'self-cleavage kobs at 10000 uM GlcN6P', '<', '1e-05'),
  ('G7U G41U U46A G62U', 'self-cleavage kobs at 10000 uM GlcN6P', '<', '1e-05'),
  ('G44C C50U U56A', 'self-cleavage kobs at 10000 uM GlcN6P', '<', '1e-05'),
  ('A33C G43C C58A U69A', 'self-cleavage kobs at 10000 uM GlcN6P', '<', '1e-05'),
  ('A14U U57C', 'self-cleavage kobs at 10000 uM GlcN6P', '=', '6.38e-05'),
  ('G38U G41A U45G U56A G59U', 'self-cleavage kobs at 10000 uM GlcN6P', '<', '1e-05'),
  ('G29A G32U C70A', 'self-cleavage kobs at 10000 uM GlcN6P', '=', '4.82e-05'),
  ('U46C C68G', 'self-cleavage kobs at 10000 uM GlcN6P', '=', '4.62e-05'),
  ('A6C C8G', 'self-cleavage kobs at 10000 uM GlcN6P', '<', '1e-05'),
  ('G32C C68G C71G', 'self-cleavage kobs at 10000 uM GlcN6P', '=', 0.000123),
  ('C8A A14U A15G G29A', 'self-cleavage kobs at 10000 uM GlcN6P', '<', '1e-05'),
  ('C16U G29C', 'self-cleavage kobs at 10000 uM GlcN6P', '=', 0.0179),
  ('A52G A53G', 'self-cleavage kobs at 10000 uM GlcN6P', '=', 0.00145),
  ('A15C U46C', 'self-cleavage kobs at 10000 uM GlcN6P', '=', 0.000295),
  ('C10G G44U C68U C70U', 'self-cleavage kobs at 10000 uM GlcN6P', '<', '1e-05'),
  ('U45C', 'self-cleavage kobs at 10000 uM GlcN6P', '=', 0.00385),
  ('C58G G60C', 'self-cleavage kobs at 10000 uM GlcN6P', '<', '1e-05'),
  ('A6G U45A', 'self-cleavage kobs at 10000 uM GlcN6P', '=', 0.000455),
  ('A12G C16A G29U', 'self-cleavage kobs at 10000 uM GlcN6P', '=', 0.000458),
  ('C34A G62C', 'self-cleavage kobs at 10000 uM GlcN6P', '<', '1e-05'),
  ('G9A C34A A64G C70G', 'self-cleavage kobs at 10000 uM GlcN6P', '<', '1e-05'),
  ('A36U G40U', 'self-cleavage kobs at 10000 uM GlcN6P', '<', '1e-05'),
  ('G37C A48G G62U', 'self-cleavage kobs at 10000 uM GlcN6P', '<', '1e-05'),
  ('G40C U47G', 'self-cleavage kobs at 10000 uM GlcN6P', '=', 0.000412),
  ('G44U G51U C67G', 'self-cleavage kobs at 10000 uM GlcN6P', '<', '1e-05'),
  ('G59A A64G', 'self-cleavage kobs at 10000 uM GlcN6P', '=', '7.67e-05'),
  ('C8U C11U C58A C67G', 'self-cleavage kobs at 10000 uM GlcN6P', '=', 0.000209),
  ('A15U A42U G51A C67U', 'self-cleavage kobs at 10000 uM GlcN6P', '<', '1e-05'),
  ('G38C U45A C70G', 'self-cleavage kobs at 10000 uM GlcN6P', '<', '1e-05'),
  ('U30C G38U A42U', 'self-cleavage kobs at 10000 uM GlcN6P', '<', '1e-05'),
  ('U31A C71A', 'self-cleavage kobs at 10000 uM GlcN6P', '=', 0.00252),
  ('U31A G66C', 'self-cleavage kobs at 10000 uM GlcN6P', '=', 0.000307),
  ('C8A A12G U31G A39U', 'self-cleavage kobs at 10000 uM GlcN6P', '<', '1e-05'),
  ('G9C G51U', 'self-cleavage kobs at 10000 uM GlcN6P', '<', '1e-05');
